Molecular target: Serine/threonine-protein kinase 33 (Homo sapiens) (UniProt Q9BYT3)
Sequence (Q9BYT3 whole entry, looked up): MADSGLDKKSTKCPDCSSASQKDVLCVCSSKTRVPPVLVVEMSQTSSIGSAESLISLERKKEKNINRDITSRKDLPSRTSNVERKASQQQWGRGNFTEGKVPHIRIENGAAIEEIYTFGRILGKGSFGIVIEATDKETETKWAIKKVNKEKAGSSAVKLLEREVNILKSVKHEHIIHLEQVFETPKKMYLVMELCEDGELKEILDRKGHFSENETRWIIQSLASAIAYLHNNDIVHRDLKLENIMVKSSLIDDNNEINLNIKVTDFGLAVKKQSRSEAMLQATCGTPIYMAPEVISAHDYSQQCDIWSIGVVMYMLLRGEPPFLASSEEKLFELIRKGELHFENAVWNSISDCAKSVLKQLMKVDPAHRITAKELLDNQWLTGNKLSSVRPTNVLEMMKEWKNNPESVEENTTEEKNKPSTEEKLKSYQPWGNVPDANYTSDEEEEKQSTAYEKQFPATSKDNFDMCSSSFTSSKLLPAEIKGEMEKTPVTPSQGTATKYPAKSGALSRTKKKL
Conditions: at 10 µM
Give residual activity for every item shown.
Lab note: write values as number then unit, every time.

molecule | result
c1ccc(-c2n[nH]c3c2oc2ccccc23)cc1 | 81%
Oc1ccc(-c2nc(-c3ccc(F)cc3)c(-c3ccncc3)[nH]2)cc1 | 94%
O=C1Nc2ccccc2/C1=C1/Nc2ccccc2/C1=N\OCCC(O)CO (stereo unspecified) | 7%
CC(=O)O/N=C1\C(=C2\C(=O)Nc3cc(Br)ccc32)Nc2ccccc21 | 79%
CO[C@H]1C[C@@H]2CC[C@@H](C)[C@@](O)(O2)C(=O)C(=O)N2CCCC[C@H]2C(=O)O[C@H]([C@H](C)C[C@@H]2CC[C@@H](O)[C@H](OC)C2)CC(=O)[C@H](C)/C=C(\C)[C@@H](O)[C@@H](OC)C(=O)[C@H](C)C[C@H](C)/C=C/C=C/C=C/1C | 107%

Field: residual activity. Fill in for each record below.
1. O=C(O)c1ccc2c3c1cccc3c(=O)n1c3ccccc3nc21
2. CC[n+]1c(/C=C/N(C)c2ccccc2)n(-c2ccccc2)c2ccc(-c3nc4ccccc4s3)cc21
3. O=C1Nc2cc(Br)ccc2/C1=C1/Nc2ccccc2/C1=N\O
4. Cn1cnc2cc3c(Nc4cccc(Br)c4)ncnc3cc21

1. 59%
2. 82%
3. 72%
4. 95%
